Reference source: patent US20180305332A1

TARGET SYSTEM: GST tagged LXRalpha LBD (ligand binding domain) (Homo sapiens)
Construct: purchased Invitrogen pv4655
PROCEDURE DETAILS: LanthaScreen TR-FRET Liver X Receptor Coactivator Assay, LXR alpha-LBD
Assay type: biochemical
EXPERIMENTAL SETUP: activity at max dose (efficacy), relative to reference T0901317
Collected LXR alpha act @ max dose (%) values appear next to each entry.

{"COMPOUND": "CN(C)C(=O)c1ccc(N2CCC(C3CCN(C(=O)C(O)(C4CC4)C(F)(F)F)CC3)CC2)cc1Cl (single isomer, unassigned)", "UNIT TEXT": "%", "LXR alpha act @ max dose (%)": 56}
{"COMPOUND": "CN(C)C(=O)c1ccc(N2CCC(C3CCN(C(=O)C(O)(C(C)(C)C)C(F)(F)F)CC3)CC2)cc1Cl (single isomer, unassigned)", "UNIT TEXT": "%", "LXR alpha act @ max dose (%)": 56}
{"COMPOUND": "CC(C)CC(O)(C(=O)N1CCC(C2CCN(c3ccc(C(=O)N(C)C)c(Cl)c3)CC2)CC1)C(F)(F)F (stereo not drawn) [Example A-90]", "UNIT TEXT": "%", "LXR alpha act @ max dose (%)": 45}

---

TARGET SYSTEM: GST tagged LXRalpha LBD (ligand binding domain) (Homo sapiens, UniProt Q13133)
Construct: purchased Invitrogen pv4655
Sequence (Q13133 209-447 limits assumed): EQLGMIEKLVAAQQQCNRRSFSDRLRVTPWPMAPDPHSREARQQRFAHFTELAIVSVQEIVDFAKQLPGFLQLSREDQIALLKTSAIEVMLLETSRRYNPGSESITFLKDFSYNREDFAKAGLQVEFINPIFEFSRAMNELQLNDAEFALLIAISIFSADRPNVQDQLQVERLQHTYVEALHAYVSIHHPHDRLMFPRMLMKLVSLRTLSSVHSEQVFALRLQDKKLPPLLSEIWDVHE
PROCEDURE DETAILS: LanthaScreen TR-FRET Liver X Receptor Coactivator Assay, LXR alpha-LBD
Assay type: biochemical
EXPERIMENTAL SETUP: activity at max dose (efficacy), relative to reference T0901317; read-out: LXR alpha act @ max dose (%)
Collected Emax values appear next to each entry.

{"COMPOUND": "O=C1CCN(C(=O)c2ccc(N3CCC(C4CCN(C(=O)[C@](O)(c5ccccc5)C(F)(F)F)CC4)CC3)cc2Cl)C1", "Emax, %": 28}
{"COMPOUND": "CN(C)C(=O)c1ccc(N2CCC(C3CCN(C(=O)[C@@](O)(c4ccccc4)C(F)(F)C(F)(F)F)CC3)CC2)cc1Cl (single isomer, unassigned)", "Emax, %": 40}
{"COMPOUND": "COc1ccccc1C(C)(C)C(=O)N1CCC(C2CCN(c3ccc(C(=O)N(C)C)c(Cl)c3)CC2)CC1", "Emax, %": 37}
{"COMPOUND": "CN(C)C(=O)c1ccc(N2CCC(C3CCN(C(=O)C(O)(C(C)(C)C)C(F)(F)F)CC3)CC2)cc1Cl (single isomer, unassigned) [Example A-6]", "Emax, %": 70}
{"COMPOUND": "CN(C)C(=O)c1ccc(N2CCC(C3CCN(C(=O)c4c(F)cccc4F)CC3)CC2)nc1Cl", "Emax, %": 38}
{"COMPOUND": "CC(C)C(O)(C(=O)N1CCC(C2CCN(c3ccc(C(=O)N4CC(F)(F)C4)c(Cl)c3)CC2)CC1)C(F)(F)F (stereo not drawn)", "Emax, %": 30}

---

TARGET SYSTEM: GST tagged LXRbeta LBD (ligand binding domain) (Homo sapiens)
Construct: purchased Invitrogen pv4658.pps
Sequence (P55055 222-460 limits assumed): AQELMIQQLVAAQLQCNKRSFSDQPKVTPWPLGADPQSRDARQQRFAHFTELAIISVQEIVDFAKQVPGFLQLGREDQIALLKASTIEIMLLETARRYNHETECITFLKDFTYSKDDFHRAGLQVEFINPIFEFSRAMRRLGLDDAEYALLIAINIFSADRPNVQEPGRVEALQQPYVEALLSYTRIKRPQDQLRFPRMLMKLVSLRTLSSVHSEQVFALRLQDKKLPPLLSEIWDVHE
PROCEDURE DETAILS: LanthaScreen TR-FRET Liver X Receptor Coactivator Assay, LXR beta-LBD
Format: biochemical
EXPERIMENTAL SETUP: activity at max dose (efficacy), relative to reference T0901317; read-out: LXR beta act @ max dose (%)

{"COMPOUND": "CN(C)C(=O)c1ccc(N2CCC(C3CCN(C(=O)C4(C(F)(F)F)CCCCC4)CC3)CC2)cc1Cl", "Emax [%]": 119}
{"COMPOUND": "COC(=O)[C@@H]1CCCN1C(=O)c1ccc(N2CCC(C3CCN(C(=O)[C@](O)(c4ccccc4)C(F)(F)F)CC3)CC2)cc1Cl", "Emax [%]": 81}
{"COMPOUND": "CN(C)C(=O)c1ccc(N2CCC(C3CCN(C(=O)C(O)(c4ccccc4)C4CCC4)CC3)CC2)cc1Cl (stereo not shown)", "Emax [%]": 109}
{"COMPOUND": "CNC(=O)c1ccc(N2CCC(C3CCN(C(=O)C(O)(C(C)C)C(F)(F)F)CC3)CC2)cc1Cl (stereo not shown)", "Emax [%]": 123}
{"COMPOUND": "COC1CN(C(=O)c2ccc(N3CCC(C4CCN(C(=O)[C@](O)(c5ccccc5)C(F)(F)F)CC4)CC3)cc2Cl)C1", "Emax [%]": 57}
{"COMPOUND": "CN(C)C(=O)c1ccc(N2CCC(C3CCN(C(=O)C4(c5ccccc5)CCC4)CC3)CC2)nc1Cl", "Emax [%]": 114}
{"COMPOUND": "O=C(c1c(F)cccc1F)N1CCC(C2CCN(c3ccc(C(=O)N4CCCC4CO)c(Cl)c3)CC2)CC1 (stereo not shown)", "Emax [%]": 84}

---

Collected EC50 values appear next to each entry.
TARGET SYSTEM: GST tagged LXRalpha LBD (ligand binding domain) (Homo sapiens)
PROCEDURE DETAILS: LanthaScreen TR-FRET Liver X Receptor Coactivator Assay, LXR alpha-LBD
EXPERIMENTAL SETUP: Inflection Point (potency), co-activator recruitment, relative to reference T0901317; read-out: LXR alpha IP
MEASURE NAME: EC50 (µM)

{"COMPOUND": "CN(C)C(=O)c1ccc(N2CCC(C3CCN(C(=O)C(O)(C4CCC4)C(F)(F)F)CC3)CC2)cc1Cl (stereo not drawn)", "REPORTED MEASUREMENT": 0.756}
{"COMPOUND": "O=C(c1ccc(N2CCC(C3CCN(C(=O)[C@](O)(c4ccccc4)C(F)(F)C(F)(F)F)CC3)CC2)cc1Cl)N1CCC[C@H]1CO", "REPORTED MEASUREMENT": 0.211}
{"COMPOUND": "Cc1cccc(C2(C(=O)N3CCC(C4CCN(c5ccc(C(=O)N(C)C)c(Cl)c5)CC4)CC3)CCC2)c1", "REPORTED MEASUREMENT": 1.75}
{"COMPOUND": "CN(C)C(=O)c1ccc(N2CCC(C3CCN(C(=O)c4ccccc4C(F)(F)F)CC3)CC2)cc1Cl", "REPORTED MEASUREMENT": 3}
{"COMPOUND": "O=C(c1ccc(N2CCC(C3CCN(C(=O)[C@](O)(c4ccccc4)C(F)(F)F)CC3)CC2)cc1Cl)N1CCCC1C1CC1 (stereo partly drawn)", "REPORTED MEASUREMENT": 0.975}
{"COMPOUND": "CC(C)C(O)(C(=O)N1CCC(C2CCN(c3ccc(C(=O)N(C)C)c(Cl)n3)CC2)CC1)C(F)(F)F (stereo in doubt) [Example B-6]", "REPORTED MEASUREMENT": 1.67}
{"COMPOUND": "CN(C)C(=O)c1ccc(N2CCC(C3CCN(C(=O)C4(c5ccc(Cl)cc5Cl)CCC4)CC3)CC2)cc1Cl", "REPORTED MEASUREMENT": 0.618}
{"COMPOUND": "CN(C)C(=O)c1ccc(N2CCC(C3CCN(C(=O)c4c(Cl)cccc4Cl)CC3)CC2)nc1Cl", "REPORTED MEASUREMENT": 1.37}
{"COMPOUND": "CN(Cc1noc(C2CC2)n1)C(=O)c1ccc(N2CCC(C3CCN(C(=O)[C@](O)(c4ccccc4)C(F)(F)F)CC3)CC2)cc1Cl", "REPORTED MEASUREMENT": 1.46}

---

Collected Emax values appear next to each entry.
TARGET SYSTEM: GST tagged LXRalpha LBD (ligand binding domain) (Homo sapiens, UniProt Q13133)
Construct: purchased Invitrogen pv4655
PROCEDURE DETAILS: LanthaScreen TR-FRET Liver X Receptor Coactivator Assay, LXR alpha-LBD
Type: biochemical
EXPERIMENTAL SETUP: activity at max dose (efficacy), relative to reference T0901317; read-out: LXR alpha act @ max dose (%)
MEASURE NAME: Emax (%)

{"COMPOUND": "CN(C)C(=O)c1c(Cl)cc(N2CCC(C3CCN(C(=O)[C@](O)(c4ccccc4)C(F)(F)F)CC3)CC2)cc1Cl", "MEASURE NAME": "Emax", "UNIT TEXT": "%", "REPORTED MEASUREMENT": 25}
{"COMPOUND": "CN(C)C(=O)c1ccc(N2CCC(C3CCN(C(=O)[C@](O)(c4ccccc4)C(F)(F)C(F)(F)F)CC3)CC2)nc1Cl (single isomer, unassigned)", "MEASURE NAME": "Emax", "UNIT TEXT": "%", "REPORTED MEASUREMENT": 17}
{"COMPOUND": "CN(C)C(=O)c1ccc(N2CCC(C3CCN(C(=O)C4(c5cc(F)cc(F)c5)CCCC4)CC3)CC2)cc1Cl", "MEASURE NAME": "Emax", "UNIT TEXT": "%", "REPORTED MEASUREMENT": 35}
{"COMPOUND": "Cc1ccccc1C1(C(=O)N2CCC(C3CCN(c4ccc(C(=O)N(C)C)c(Cl)c4)CC3)CC2)CCC1", "MEASURE NAME": "Emax", "UNIT TEXT": "%", "REPORTED MEASUREMENT": 65}
{"COMPOUND": "CN(C)C(=O)c1ccc(N2CCC(C3CCN(C(=O)C4(c5cccc(F)c5)CCC4)CC3)CC2)cc1Cl", "MEASURE NAME": "Emax", "UNIT TEXT": "%", "REPORTED MEASUREMENT": 14}
{"COMPOUND": "CN(C)C(=O)c1ccc(N2CCC(C3CCN(S(=O)(=O)c4ccccc4C#N)CC3)CC2)cc1Cl", "MEASURE NAME": "Emax", "UNIT TEXT": "%", "REPORTED MEASUREMENT": 48}
{"COMPOUND": "CC[C@](O)(C(=O)N1CCC(C2CCN(c3ccc(C(=O)N(C)C)c(Cl)c3)CC2)CC1)C(F)(F)F (single isomer, unassigned)", "MEASURE NAME": "Emax", "UNIT TEXT": "%", "REPORTED MEASUREMENT": 67}
{"COMPOUND": "CC(C)S(=O)(=O)c1ccc(N2CCC(C3CCN(C(=O)[C@](O)(c4ccccc4)C(F)(F)F)CC3)CC2)cc1Cl", "MEASURE NAME": "Emax", "UNIT TEXT": "%", "REPORTED MEASUREMENT": 28}
{"COMPOUND": "CC(C)C(O)(C(=O)N1CCC(C2CCN(c3ccc(C(=O)N(C)C)c(F)c3)CC2)CC1)C(F)(F)F (centres unmarked)", "MEASURE NAME": "Emax", "UNIT TEXT": "%", "REPORTED MEASUREMENT": 41}
{"COMPOUND": "CN(C)C(=O)c1ccc(N2CCC(C3CCN(C(=O)C(C)(C)c4ccc(Cl)cc4)CC3)CC2)cc1Cl", "MEASURE NAME": "Emax", "UNIT TEXT": "%", "REPORTED MEASUREMENT": 22}
{"COMPOUND": "CN(C)C(=O)c1ccc(N2CCC(C3CCN(C(=O)C(O)(c4ccccc4F)C(F)(F)F)CC3)CC2)cc1Cl (centres unmarked)", "MEASURE NAME": "Emax", "UNIT TEXT": "%", "REPORTED MEASUREMENT": 29}
{"COMPOUND": "CN(C)C(=O)c1ccc(N2CCC(C3CCN(C(=O)c4c(F)cccc4F)CC3)CC2)cc1Cl", "MEASURE NAME": "Emax", "UNIT TEXT": "%", "REPORTED MEASUREMENT": 23}
{"COMPOUND": "CN(C)C(=O)c1ccc(N2CCC(C3CCN(C(=O)OCc4c(Cl)cccc4Cl)CC3)CC2)cc1Cl", "MEASURE NAME": "Emax", "UNIT TEXT": "%", "REPORTED MEASUREMENT": 74}
{"COMPOUND": "CCCCN(C)C(=O)c1ccc(N2CCC(C3CCN(C(=O)[C@](O)(c4ccccc4)C(F)(F)F)CC3)CC2)cc1Cl", "MEASURE NAME": "Emax", "UNIT TEXT": "%", "REPORTED MEASUREMENT": 21}
